The measured values listed here are drawn from PubChem BioAssay AID1159580.

Experiment: chemical genetic growth profiling, strain panel (AID 1159580);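 also: tested at 20 µM; growth read once vehicle control cultures reached saturation at 30 °C; 1 = growth at the plate median or of vehicle wells; lower values mean less growth of the strain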
Conditions: S. cerevisiae deletion strains, growth OD, locus YKL085W, strain MDH1 (second series), active compounds read low
In all, about 5,500 compounds went through this assay and about 2,000 (36%) were called active. About 18% were inconclusive and are not listed. Some of the results follow.
Let's look at some molecules and their measured normalized growth.
Quantity Measured: normalized growth

{"Molecule": "CC(=O)O[C@@H]1CC2C(C)(C)CCC(=O)[C@]2(C)C2CC[C@@]3(C)[C@H](c4ccoc4)OC(=O)C4OC43[C@@]21C (stereo partly drawn)", "Measured Result": 1}
{"Molecule": "CCCCC1C(=O)N(c2ccccc2)N(c2ccccc2)C1=O", "Measured Result": 0.959}
{"Molecule": "CC(C)Oc1ccc2c(=O)cc(-c3ccccc3)oc2c1", "Measured Result": 0.667}
{"Molecule": "COc1cc2c3cc1Oc1cc(ccc1O)C[C@@H]1c4c(cc(OC)c(O)c4Oc4ccc(cc4)C[C@@H]3N(C)CC2)CC[N+]1(C)C", "Measured Result": 0.988}
{"Molecule": "CNCCC=C1c2ccccc2CCc2ccccc21", "Measured Result": 1}
{"Molecule": "COc1ccc(-c2cc(=O)c3ccccc3o2)cc1", "Measured Result": 0.914}
{"Molecule": "ClC(Cl)=C(c1ccc(Cl)cc1)c1ccc(Cl)cc1", "Measured Result": 0.931}
{"Molecule": "COc1cc(O)c2c(=O)c(-c3ccc(O)cc3)coc2c1", "Measured Result": 0.948}

---

Test: chemical genetic growth profiling, strain panel (AID 1159580);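 also: tested at 20 µM; growth read once vehicle control cultures reached saturation at 30 °C; 1 = growth at the plate median or of vehicle wells; lower values mean less growth of the strain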
Details: S. cerevisiae deletion strains, growth OD, locus YLR027C, strain aat2
Among all 5,500 compounds or so, about 2,000 (36%) were called active. About 18% were inconclusive and are not listed. No stated cut-off is given here; in the data, active means normalized growth mostly below about 0.91 (no sharp cut-off); inconclusive means no clear call, values can overlap the other calls; inactive means mostly above about 0.92. Some of the results follow.
Outcome codes: true (active), false (inactive)

{"Compound": "O=c1c(-c2ccc(O)cc2)coc2cc(O)cc(O)c12", "Assigned Category": "false"}
{"Compound": "CCN(CC)CCNc1ccc(CO)c2sc3ccccc3c(=O)c12", "Assigned Category": "false"}
{"Compound": "Cc1cc2cc3c(C)cc(=O)oc3c(C)c2o1", "Assigned Category": "false"}
{"Compound": "CC(=O)Oc1c(-c2ccccc2)oc2c(CC=C(C)C)c3c(c(OC(C)=O)c2c1=O)C=CC(C)(C)O3", "Assigned Category": "false"}
{"Compound": "CCCCOc1cc(CC2CNC(=O)N2)ccc1OC (configuration not stated)", "Assigned Category": "false"}
{"Compound": "COc1cc([C@@H]2c3cc4c(cc3[C@H](O)[C@H]3COC(=O)[C@@H]23)OCO4)cc(OC)c1OC", "Assigned Category": "false"}
{"Compound": "CCCN1C[C@H](CSC)C[C@@H]2c3cccc4[nH]cc(c34)C[C@H]21", "Assigned Category": "false"}
{"Compound": "Nc1ccc(C(=O)Oc2ccccc2)c(O)c1", "Assigned Category": "false"}
{"Compound": "COc1ccc2cc3[n+](cc2c1OC)CCc1cc2c(cc1-3)OCO2", "Assigned Category": "false"}
{"Compound": "COc1ccc(-c2cc(=O)c3cc(OC)ccc3o2)cc1", "Assigned Category": "false"}
{"Compound": "CC1(C)O[C@@H]2CC3C4C[C@H](F)C5=CC(=O)C=C[C@]5(C)[C@@]4(F)[C@@H](O)C[C@]3(C)[C@]2(C(=O)CO)O1 (some centres not stated)", "Assigned Category": "false"}
{"Compound": "COc1cccc2c1cc([N+](=O)[O-])c1c(C(=O)O)cc3c(c12)OCO3", "Assigned Category": "false"}
{"Compound": "Cn1nnnc1SCC1=C(C(=O)O)N2C(=O)C(NC(=O)C(O)c3ccccc3)C2SC1 (configuration not stated)", "Assigned Category": "false"}
{"Compound": "CC1=C2C(=CO[C@H](C)[C@H]2C)C(=O)C(C(=O)O)=C1O", "Assigned Category": "false"}
{"Compound": "CCCCC1C(=O)N(c2ccccc2)N(c2ccccc2)C1=O", "Assigned Category": "false"}
{"Compound": "NCCc1ccc(O)cc1", "Assigned Category": "false"}
{"Compound": "CCCCCCCCCc1ccc(O)cc1", "Assigned Category": "true"}
{"Compound": "O=c1oc2ccccc2c(O)c1Cc1c(O)c2ccccc2oc1=O", "Assigned Category": "false"}
{"Compound": "Nc1nc(N)c2nc(-c3ccccc3)c(N)nc2n1", "Assigned Category": "false"}
{"Compound": "COC(=O)C1=C(C)NC(C)=C(C(=O)OCC(C)C)C1c1ccccc1[N+](=O)[O-] (configuration not stated)", "Assigned Category": "true"}
{"Compound": "CC(=O)N(O)CCCCCNC(=O)CCC(=O)N(O)CCCCCNC(=O)CCC(=O)N(O)CCCCCN", "Assigned Category": "false"}
{"Compound": "N[C@@H]1CONC1=O", "Assigned Category": "false"}
{"Compound": "COc1c2c(cc3c1OCO3)CC[N+](C)=C2", "Assigned Category": "false"}
{"Compound": "O=c1c2ccccc2[se]n1-c1ccccc1", "Assigned Category": "true"}
{"Compound": "CC(C)(C)C(=O)C(Oc1ccc(Cl)cc1)n1cncn1 (configuration not stated)", "Assigned Category": "true"}
{"Compound": "CNCCC=C1c2ccccc2CCc2ccccc21", "Assigned Category": "false"}
{"Compound": "CC(C)=CCc1c2c(c(O)c3c(=O)c(O)c(-c4ccccc4)oc13)C=CC(C)(C)O2", "Assigned Category": "true"}
{"Compound": "CC(C)(Oc1ccc(Cl)cc1)C(=O)O", "Assigned Category": "false"}
{"Compound": "COCCOC(=O)C1=C(C)NC(C)=C(C(=O)OC(C)C)C1c1cccc([N+](=O)[O-])c1 (configuration not stated)", "Assigned Category": "false"}
{"Compound": "CC(=O)CC(c1ccccc1)c1c(O)c2ccccc2oc1=O (configuration not stated)", "Assigned Category": "false"}
{"Compound": "CN(C)CC/C=C1/c2ccccc2COc2ccccc21", "Assigned Category": "false"}
{"Compound": "O=c1c2ccccc2oc2ccccc12", "Assigned Category": "false"}

---

Assay: chemical genetic growth profiling, strain panel (AID 1159580);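 also: tested at 20 µM; growth read once vehicle control cultures reached saturation at 30 °C; 1 = growth at the plate median or of vehicle wells; lower values mean less growth of the strain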
Details: S. cerevisiae deletion strains, growth OD, locus YBR171W, strain sec66, active compounds read low
The campaign covered roughly 5,500 compounds. About 2,000 (36%) were called active. About 18% were inconclusive and are not listed. Some of the results follow.
Catalogue of normalized growth values

{"Compound": "OC1C(O)C(O)C(O)C(O)C1O (stereo unspecified)", "normalized growth": "1 (inactive)"}
{"Compound": "CN(N=O)C(=O)N[C@@H]1[C@@H](O)[C@H](O)[C@@H](CO)O[C@@H]1O", "normalized growth": "1.01 (inactive)"}
{"Compound": "CCn1cc(C(=O)O)c(=O)c2cc(F)c(N3CCNCC3)cc21", "normalized growth": "0.988 (inactive)"}
{"Compound": "COc1cc([C@@H]2c3cc4c(cc3[C@H](O)[C@H]3COC(=O)[C@@H]23)OCO4)cc(OC)c1OC", "normalized growth": "1.02 (inactive)"}
{"Compound": "COc1cc([C@@H]2c3cc4c(cc3C(O[C@@H]3O[C@@H]5CO[C@@H](c6cccs6)OC5[C@H](O)[C@H]3O)C3COC(=O)[C@@H]32)OCO4)cc(OC)c1O (stereo partly specified)", "normalized growth": "0.981 (inactive)"}
{"Compound": "COC(=O)C1=C(C)NC(C)=C(C(=O)OC)C1c1ccccc1[N+](=O)[O-]", "normalized growth": "0.975 (inactive)"}

---

Assay: chemical genetic growth profiling, strain panel (AID 1159580);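 also: tested at 20 µM; growth read once vehicle control cultures reached saturation at 30 °C; 1 = growth at the plate median or of vehicle wells; lower values mean less growth of the strain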
Conditions: S. cerevisiae deletion strains, growth OD, locus YNL067W, strain RPL9B, active compounds read low
In all, about 5,500 compounds went through this assay and about 2,000 (36%) were called active. Another 18% or so got no clear call; they are omitted. The list shows a part of the results.

{"Molecule": "CC(=O)O[C@H]1C[C@@]2(C)[C@H](c3ccoc3)OC(=O)[C@H]3O[C@]32[C@@]2(C)C1[C@]1(C)C(C[C@H]2OC(C)=O)C(C)(C)[C@H](OC(C)=O)C[C@@H]1OC(C)=O (stereo partly drawn)", "normalized growth": 0.996}
{"Molecule": "COc1cc([C@@H]2c3cc4c(cc3[C@H](O)[C@H]3COC(=O)[C@@H]23)OCO4)cc(OC)c1OC", "normalized growth": 1.01}
{"Molecule": "C=CCc1ccccc1OCC(O)CNC(C)C (stereo not drawn)", "normalized growth": 1.01}
{"Molecule": "COc1cc([C@@H]2c3cc4c(cc3[C@H](OC(C)=O)[C@H]3COC(=O)[C@H]23)OCO4)cc(OC)c1OC", "normalized growth": 1.01}
{"Molecule": "CC(=O)O[C@@H]1CC2C(C)(C)C(=O)CC[C@]2(C)C2CC[C@@]3(C)[C@H](c4ccoc4)OC(=O)C4OC43[C@@]21C (stereo partly drawn)", "normalized growth": 1.01}
{"Molecule": "COc1ccc(-c2coc3cc(OC)cc(O)c3c2=O)cc1", "normalized growth": 0.977}
{"Molecule": "Cn1c(=O)c2[nH]c(C3CCCC3)nc2n(C)c1=O", "normalized growth": 1.02}
{"Molecule": "CC(=O)OC1CC2C(C)(C)CCCC2(C)C2CCC3(C)C(c4ccoc4)OC(=O)C4OC43C12C (stereo not drawn)", "normalized growth": 1.02}
{"Molecule": "CC(=O)O[C@@H]1CC2C(C)(C)[C@H](O)C[C@H](O)[C@]2(C)C2CC[C@@]3(C)[C@H](c4ccoc4)OC(=O)[C@H]4O[C@]43[C@@]21C (stereo partly drawn)", "normalized growth": 1.02}
{"Molecule": "CC(N)Cc1ccc(O)cc1 (stereo not drawn)", "normalized growth": 1.01}
{"Molecule": "COC(=O)C1=C(C)NC(C)=C(C(=O)OCCN(C)Cc2ccccc2)C1c1cccc([N+](=O)[O-])c1 (stereo not drawn)", "normalized growth": 0.999}
{"Molecule": "CC(=O)Oc1cc(OC(C)=O)c2c(=O)c(-c3ccccc3)coc2c1", "normalized growth": 1}
{"Molecule": "CNCCC=C1c2ccccc2CCc2ccccc21", "normalized growth": 1.02}
